test target: Rab7 GTPase wild-type (Canis lupus familiaris), GST fusion
method: Rab7 wildtype GTP binding inhibitors, SAR follow-up, biochemical, dog Rab7, bead multiplex flow cytometry, round 1 (AID 588394)
cond: Bead-based flow cytometry, Bodipy-FL-GTP binding, EDTA
pEC50: −log10 of the molar value.
property label: pEC50

1) CC1(C)Cc2c(sc(NC(=S)NC(=O)c3ccccc3F)c2C(=O)O)CO1
7.25
2) CC1(C)Cc2c(sc(NC(=S)NC(=O)c3ccccc3Br)c2C(=O)O)CO1
7.34
3) COc1ccc(C(=O)NC(=S)Nc2sc3c(c2C(=O)O)CC(C)(C)OC3)cc1
6.90
4) CC1(C)Cc2c(sc(NC(=S)NC(=O)c3cccc(F)c3)c2C(=O)O)CO1
6.51
5) CC1(C)CCc2sc(NC(=S)NC(=O)c3ccccc3)c(C(=O)O)c2C1
7.14

[I] CC1(C)Cc2c(sc(NC(=S)NC(=O)c3cccc(Br)c3)c2C(=O)O)CO1
[II] COc1cccc(C(=O)NC(=S)Nc2sc3c(c2C(=O)O)CC(C)(C)OC3)c1
[III] CC1(C)Cc2c(sc(NC(=S)NC(=O)c3ccc(Br)cc3)c2C(=O)O)CO1
Req: Sort entries by pEC50 from minimum to maximum value. Your task in answering is to list the labels in the requested order.
Resp: I, III, II
(I: 5.64, III: 6.57, II: 7.26)

====

test target: Rab7 GTPase wild-type (Canis lupus familiaris), GST fusion
method: Rab7 wildtype GTP binding inhibitors, SAR follow-up, biochemical, dog Rab7, bead multiplex flow cytometry, round 1 (AID 588394)
cond: Bead-based flow cytometry, Bodipy-FL-GTP binding, EDTA; at 100 µM (top of the series)
The source made the active and inactive calls.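 The calls were made as follows: active = half-maximal effective concentration at most 10 microM and response span at least 30% from a well-fitted curve; inactive = the rest.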
property label: percent response, lower = inhibition

1. CCOC(=O)c1c(N)sc2ccccc12
inactive
2. CCOC(=O)c1c(NC(=S)NC(=O)c2ccccc2)sc2ccccc12
inactive
3. CN1CCc2c(sc(NC(=O)Nc3ccc(F)cc3)c2C(=O)O)C1
inactive
